In this section we review reported apparent KD of MS2 coat protein values for a set of sequences.
system: MS2 coat protein; test: apparent KD of MS2 coat protein; designed switch direction (-1 OFF switch, 1 ON switch): -1; higher = weaker reporter binding; conditions: input ligand: FMN 200 uM
Field format: number, assumed nM, no unit text.

GUGGUCUAUGUAGGAUAUACGUUUGUGCGAUGCGUAGAAGGACAUGAGGAUCACCCAUGUGUGCGAGGAUCACCCGUGUGUUGU [double] (Eterna round: R96, puzzle: Exclusion NG 1)	158
ACAUGAGGAUCACCCAUGUCCGGCUGGUCUGUUCCGGUUGUCGAGGAUAUAGUUCGGUGUUCGCGCUAGAAGGCGGGAGCUGGA [Aenatbe mod 53] (Eterna round: R96, puzzle: Exclusion NG 3)	177
GCGCACCUACCAAAAGGUAGGUCAACAUGAGGAUCACCCAUGUAGGAUAUCGAUUGCUUUGCAGUCGAGAAGGACGUGAUGCGC [JL ENG3 3.80 Mod 15] (Eterna round: R96, puzzle: Exclusion NG 3)	38

Kindly review the next sequence as well.
For GACAGGGCAGGAUAUCGAGAUCCGCACAUGAGGAUCACCCAUGUUCAGUCGAAAGACUGACGAGAAGGGCCGUGUC [Omei Ex5 E4] (Eterna round: R97, puzzle: Exclusion 5) , what is its reported apparent KD of MS2 coat protein? 1190

---

test system: MS2 coat protein; experiment: apparent KD of MS2 coat protein; designed switch direction (-1 OFF switch, 1 ON switch): 1; higher = weaker reporter binding; conditions: input ligand: FMN 200 uM
metric-name: apparent KD of MS2 coat protein (nM)
API: value field is a number in nM; no unit string.

GAGAGAUGGUUAGGAUAUUCGGUGAUAAUGAUAGAAGAAGGAACUGACAUGAGGAUCACCCAUGUGGGAAUAAUCCAGAGAGAG [Parity 20 - Jieux - Same State NG 1] (Eterna round: R96, puzzle: Same State NG 1)	103

For the sequence shown here, AUUGCUUACGCAGGAUAUGAUGUGGAAACUGCGUCAGAAGGGUGAACAGUAUCGUUGCAAGAGGACAUGAGGAUCACCCAUGUC [SameState NG1 #98] (Eterna round: R96, puzzle: Same State NG 1) , give the reported apparent KD of MS2 coat protein. 27.9

Look at this sequence and give its reported apparent KD of MS2 coat protein. ACAUGAGGAUCACCCAUGUAUGCUCAGGAAACUGUGCAACGUGAGGAUAUGGAUCCUAAUUGGAUCCAGAAGGCAUGAAUUAUU [Fiskers NG3ss - 23] (Eterna round: R96, puzzle: Same State NG 3) 41.5

What value of measured apparent KD of MS2 coat protein is listed for CCGCAUUCAGCAGGAUAUCUCAACCGGAAGAUGAGAGAAGGGUUGAUUACAUGAGGAUCACCCAUGUCCAAGCAUGCGAGAGCC [Eternabot solution 23] (Eterna round: R96, puzzle: Same State NG 1) ? 500

Look at this sequence and give its reported apparent KD of MS2 coat protein. AGAGGAGGAGCAGGAUAUUCGACGGAGGACGUGGAAGAAGGGUUCAUGCGAUGACAUGAGGAUCACCCAUGUACCGCGCGUCGA [AK SSNG1-V2-15.1] (Eterna round: R96, puzzle: Same State NG 1) 143

What measured apparent KD of MS2 coat protein goes with UUGCUCGUGUGAGGAUAUGCAGCCGUUUCGGCUGCAGAAGGUACUAUAAUACAUGAGGAUCACCCAUGUCUCUGUUGUUUUGUG [salish99_SSNG1_r04_929] (Eterna round: R96, puzzle: Same State NG 1) ? 26.9

Any idea what its apparent KD of MS2 coat protein is? The sequence is CUAAAAGGAUGAGGAUAUGCAGAGGAUCACCCUGUAGAAGGCAACAGAUGAGGAUAUGCAGAGGAUCACCCUGUAGAAGGCAAC [pwkr ssNG DX.2] (Eterna round: R96, puzzle: Same State NG 1) 233

GET /values?readout=apparent KD of MS2 coat protein&item= CUGAGCAAGCAAGGAUAUCACGUCGUUUAGACGUGAGAAGGUGCUCCUUACAUGAGGAUCACCCAUGUAUAACAUGAAGCUCAG [SSNG1/10-A3] (Eterna round: R96, puzzle: Same State NG 1) 150

---

system: K4 kissing-loop RNA reporter; test: apparent KD of K4 kissing-loop reporter; higher = weaker reporter binding; conditions: Eterna round: R107; input ligand: theophylline 20 uM;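 further: bound reporter read as fluorescence of individual clusters on recovered sequencing chips by microscopy, with normalized cluster intensities fitted with a binding model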
metric-name: apparent KD of K4 kissing-loop reporter (nM)
Express the result in nM but write the number alone.

GCAUCCAUGGCAGGAUAUAGGUUCGUGGAGUGAUGUUCCAUAACCCGAGUGAUGUUCGUUAUCCACCUAGAAGGGCCAUGGAUGC [whbob_Ex_FMNB__2th211]	215
GUAGGAUGGUGCGAUACCAGACCUGCAGUGAUGUUGCGCCAUAGUGAGUGAUGUUCACCGGUCCCUUGGCAGCGCGUCCAUAAAG [Same State Theophylline B GF 17]	1160

Name the reported apparent KD of K4 kissing-loop reporter value associated with the sequence GGUGUUGUUUGUGCUGUUUUCUUUGUUUCUCGAGGACCGGUACGGCCGCCACUCGAGUGAUGUUUGGGUAGUGAUGUUUGUUAGU [Bdazzled #1 Exc. TA] 180

Returns the measured apparent KD of K4 kissing-loop reporter for the input sequence. Input: AAAAUAAACCAGUGAUGUUGGUGUCCAGAUACCAGCGACAAAAGUCGCCCUUGGCAGCUGUGGACGUACAAAAUAAGUACGUCCU [MatMod 1 - Jieux - Same State - Theophylline A] 256

apparent KD of K4 kissing-loop reporter for UUACCAAGUGAUGUUUGGAAAUAUCCUAGGCAGGAUAUGCGGAAACGCAGAAGGGCCACCUUAUAGUGAAGGAAACUUCGCUAUU [Ex FMN A 2] ? 141

---

In this section, each of the sequences is paired with its reported apparent KD of MS2 coat protein.
system: MS2 coat protein; test: apparent KD of MS2 coat protein; designed switch direction (-1 OFF switch, 1 ON switch): -1; higher = weaker reporter binding; settings: Eterna round: R95; input ligand: microRNA oligo, concentration not stated
Dear colleague, please return just the value in µM, with no unit written.

Example entries begin here.
CUCGGACAUGAGGAUCACCCAUGUGAGGAUAUGGCGCGAUCGUCGAAAGACGAUAGCGCCAGAAGGCACAAAUG [LRO-Excl1-26] (puzzle: Exclusion 1)	0.052
UCGGCGCGAGGAUAUACGUUUGCGCUUUUUCGUUUUUGCGUACAUGAGGAUCACCCAUGUAGAAGGCGCGCCGC [Apr-15 SS2-17] (puzzle: Exclusion 2)	0.014
GCCAGAGCAGGAUAUUCAGUAUCACACAUGAGGAUCACCCAUGUCUAUCGAAAGAUAGAGGGAGAAGGGCUCUGGC [Mat - Exclusion 5 - Eli mod - D95] (puzzle: Exclusion 5)	0.105
CAGUACUACAAGCUUCGGGACAUGAGGAUCACCCAUGUUCGUCUUAUUGAUCUAGGUACGCUGACGUACCUAGAUCU [JL-sv1-2.13 Brourd mod] (puzzle: Sensor v3, turn-off variant 1)	0.0324
CAGUACUGAGGAUAUACAUGAGGAUCACCCAUGUGUUCCAGCUAGGAAACUAGGAAAAGUAGAAGGCAGUACUG [salish99_ex3_r3_069] (puzzle: Exclusion 3)	0.0231
AGUUCUAACACGAAAGUGUUAGUACAAUAAGCUUGUGAAACAUGAGGAUCACCCAUGUCCUCAUAAGCUCGUCUUAU [salish99_TOv2_r3_013] (puzzle: Sensor v3, turn-off variant 2)	0.667
GGAAUACAUGAGGAUCACCCAUGUAAGGAUAUGCUGAAUAUCACGGAAUAAACGUGCAGCAGAAGGUACAAAGG [Mat - Mod of my Eli Mod D46] (puzzle: Exclusion 1)	0.0659
CGGUCAUGAGGAUAUCGAGGUUAGUACAUGAGGAUCACCCAUGUUAUCCAGGUGUCGGUUCGAGAAGGCAUGUCCG [LRO-Ex5-12] (puzzle: Exclusion 5)	0.287

Now examine the next entry.
Look up apparent KD of MS2 coat protein for this sequence: UUUUAGGCAGGAUAUACAUUUUUUUUAUUAUCCUCAUUAUUACAUGAGGAUCACCCAUGUAGAAGGGCCAUUUU [My Design] (puzzle: Exclusion 2) 0.0385

---

test system: MS2 coat protein; test: apparent KD of MS2 coat protein; higher = weaker reporter binding; conditions: Eterna round: R107; input ligand: theophylline 20 uM
# key: entry, value: apparent KD of MS2 coat protein
State the answer as a number, implicitly in µM.

Known apparent KD of MS2 coat protein results, listed for orientation:
GUACAUGAGGAUCACCCAUGUAUAGUUGAAGGAGCGACCAGAGGGUCAGGUAGGUCGCAGCACAUGGUGAAAACCCGUGUAUGCC [#1 Exclusion - Arginine A Attempt #21 (Inspired by Pi)]	0.0617
GCGUACGAUCGGGAUACCAGACAUUGCCGUUAGGGUGAACUUGAGGAUCACCCAAGUUUUGUCCCUUGGCAGCCCGAUCGUACGC [ETB NP+V+V2 #9 Diff Apt, Same Structure]	0.0194

State the recorded apparent KD of MS2 coat protein for this entry: GACAAUAAUUCAACAAUCAAAAUAGUGGGACGAGGACCGGUACGGCCGCCACUCGCUGAAGCACAUGAGGAUCACCCAUGUCUAA [theeternabot_exclusion_MS2_Trp_A_47] 0.0198

For the sequence UGCAUUAUACAUGGAUCACCCAUGUAGACACGAGGACCGGUACGGCCGCCACUCGGAAGAGGAAACAUGAGGAUCACCCAUGUGA [Try A SS t2] , what apparent KD of MS2 coat protein is on record? 0.0897

Which apparent KD of MS2 coat protein is listed for UAAACUACACAUGAGGAUCACCCAUGUGGCCGAGGACCGGUACGGCCGCCACUCGUGUGUUAAUAAAAGAACCGCAAAGUUCUGU [Ticerear] ? 0.401

Request the reported apparent KD of MS2 coat protein associated with AAUAUAAGUGUAAUUAUAUGUAUCUCUGAUACCAGACUCUCAUGUGUCCCUUGGCAGCAGUUACAUGAGGAUCACCCAUGUAUUA [JR_Nu_SSTheophyA_Sub024] 0.0802
